- Tested on: mpo:GFP zebrafish embryos (neutrophil migration to the wound site)
- Procedure text: mpo:GFP zebrafish fin-clip neutrophil migration (inflammation) assay
- Format: in vivo
- Set-up: concentration or dose not given beside the values
- Reported conditions: embryos survived/tested at the concentration given
Property name: mpo:GFP inflammation n (survived/tested)

In [3]: df
Out[3]:
                                    molecule  result
 0  N=C1c2ccccc2C(=O)N1C1CCC(=O)NC1=O (centres unmarked)     7/8
 1  O=C1NC(=S)CCC1N1C(=O)c2ccccc2C1=S (centres unmarked)   26/30
 2  O=C1c2cccc([N+](=O)[O-])c2CN1C12CC3CC(CC1C3)C2   12/21
 3  O=C1CCC(N2Cc3ccccc3C2=O)C(=O)N1CN1C(=S)c2ccccc2C1=S (centres unmarked)    4/11
 4  O=C1NC(=S)CCC1N1C(=O)c2cccc(O)c2C1=O (centres unmarked)   14/24
 5  FC(F)(F)c1ccc(/N=C2/c3ccccc3CN2c2ccc(C(F)(F)F)cn2)nc1    6/15
 6  CC(N1Cc2ccccc2C1=S)C12CC3CC(CC(C3)C1)C2 (centres unmarked)    6/14
 7    O=C1c2ccccc2CN1C12CC3CC(CC(O)(C3)C1)C2   14/19
 8  O=C1CCC(N2C(=O)c3ccncc3C2=O)C(=O)N1 (centres unmarked)    7/16
 9  CC(=O)Oc1ccc2c(c1)C(=O)N(C1CCC(=O)NC1=O)C2=O (centres unmarked)   14/14
10  O=C1CCC(N2C(=O)c3cccnc3C2=O)C(=O)N1 (centres unmarked)    8/15
